Header: Ki / Apoptosis regulator Bcl-2 (Homo sapiens) / multiple publications

{"compound": "O=C(NS(=O)(=O)c1ccc(NCCSc2ccccc2)c([N+](=O)[O-])c1)c1ccc(N2CCOCC2)cc1", "Ki": "> 10 µM"}
{"compound": "N#CC1=C(NCCC(=O)NCc2ccccc2)c2ccc(Sc3ccc(Br)cc3)c3cccc(c23)C1=O", "Ki": "1.05 µM"}
{"compound": "Cc1cc(OCCCc2c3n(c4c(-c5c(C)nn(C)c5C)c(Cl)ccc24)[C@H](C)CN(c2ccc(C(=O)O)cc2)C3=O)cc(C)c1Cl", "Ki": "0.69 µM"}
{"compound": "O=C(O)c1cc(-c2ccccc2)n(-c2ccccc2)n1", "Ki": "> 10 µM"}
{"compound": "COc1ccc(-c2ccc(Cn3cc(C(=O)N[C@@H](Cc4ccc(OCc5ccc([N+](=O)[O-])cc5)cc4)C(=O)NS(=O)(=O)c4ccc(Cl)c([N+](=O)[O-])c4)c4ccccc43)cc2)cc1", "Ki": "> 10 µM"}
{"compound": "Cc1cc2c(c(O)c1-c1c(C)cc3c(c1O)/C(=C/NCCCCC(=O)O)C(=O)C(O)=C3C(C)C)/C(=C/NCCCCC(=O)O)C(=O)C(O)=C2C(C)C", "Ki": "0.171 µM"}
{"compound": "CC(=O)c1ccc(N2C(=O)/C(=C/c3ccc(OCc4ccc(C(=O)O)cc4)cc3)SC2=S)cc1", "Ki": "> 10 µM"}
{"compound": "COc1ccc(N2C(=O)/C(=C/c3ccc(OCc4ccc(C(=O)O)cc4)cc3)SC2=S)cc1", "Ki": "> 10 µM"}
{"compound": "COc1ccc2c(c1)c(CC(=O)NS(=O)(=O)c1ccc(N3CCOCC3)c([N+](=O)[O-])c1)c(C)n2-c1ccc(C)cc1", "Ki": "> 10 µM"}
{"compound": "CCOC(=O)C1=C(N)Oc2ccc(C3CCCC3)cc2C1C(C#N)C(=O)OCC (stereo not given)", "Ki": "128 µM"}
{"compound": "O=C(/C=C/c1ccccc1Cl)Nc1ccc(C(=O)NS(=O)(=O)c2ccc(NCCSc3ccccc3)c([N+](=O)[O-])c2)cc1", "Ki": "0.6 µM"}
{"compound": "Cc1cc(Oc2ccc(Cn3nc4ccc(Cl)cc4c3C(=O)NS(=O)(=O)c3ccc(Cl)cc3)cc2)cc(C)c1Cl", "Ki": "0.51 µM"}
{"compound": "CC1(C)CCN(c2ccc(C(=O)NS(=O)(=O)c3ccc(N[C@@H](CCN4CCOCC4)CSc4ccccc4)c([N+](=O)[O-])c3)cc2)CC1", "Ki": "0.732 µM"}
{"compound": "O=S(=O)(NCCNC(=S)Nc1cc(C(F)(F)F)cc(C(F)(F)F)c1)c1sccc1-c1ccccc1Oc1ccc(O)c(O)c1", "Ki": "5.6 µM"}
{"compound": "O=C(NCCNS(=O)(=O)c1cc(-c2ccccc2Oc2ccc(O)c(O)c2)cs1)Nc1cc(C(F)(F)F)cc(C(F)(F)F)c1", "Ki": "5.2 µM"}

###

Header: pKi / Apoptosis regulator Bcl-2 (Homo sapiens) / multiple publications
pKi: −log10 of the molar value.
quantity_measured: pKi

{"molecule": "CC(=O)Oc1ccc(NC(=O)[C@H](Cc2ccccc2)N2C(=O)N[C@@H](Cc3ccc(-c4ccc(Cl)cc4)cc3)C2=O)cc1", "quantity_measured": "pKi", "modifier": "<", "readout_value": 4.30}
{"molecule": "O=C(NS(=O)(=O)c1ccc([N+](=O)[O-])cc1)[C@H](Cc1ccc(Br)cc1)N1C(=O)/C(=C/c2ccc(-c3ccc(C(F)(F)F)cc3)cc2)SC1=S", "quantity_measured": "pKi", "modifier": "=", "readout_value": 6.05}
{"molecule": "O=C(N[C@H]1CCN(Cc2ccccc2)C1)[C@H]1[C@H](CO)[C@H]2Cn3c(cccc3=O)[C@H]2N1CC1CCCCC1", "quantity_measured": "pKi", "modifier": "=", "readout_value": 5.39}
{"molecule": "CN(C)CC#Cc1ccc(OCCCc2sc(N3CCc4cccc(C(=O)Nc5nc6ccccc6s5)c4C3)nc2C(=O)O)c(F)c1", "quantity_measured": "pKi", "modifier": "=", "readout_value": 7.10}
{"molecule": "CCOC(=O)c1c(-c2cccc(N3CCN(c4ccc(NS(=O)(=O)c5ccc(N[C@H](CCN(C)C)CSc6ccccc6)c([N+](=O)[O-])c5)cc4)CC3)c2)c(-c2ccc(Cl)cc2)cn1C", "quantity_measured": "pKi", "modifier": "=", "readout_value": 7.94}
{"molecule": "O=C(Nc1ccc(C(=O)NS(=O)(=O)c2ccc(NCCSc3ccccc3)c([N+](=O)[O-])c2)cc1)c1cccc(F)c1", "quantity_measured": "pKi", "modifier": "=", "readout_value": 5.85}
{"molecule": "O=C(NS(=O)(=O)c1ccc(NCCSc2ccccc2)c([N+](=O)[O-])c1)c1ccc(NS(=O)(=O)c2ccccc2)cc1", "quantity_measured": "pKi", "modifier": "=", "readout_value": 4.82}
{"molecule": "Cc1cc(Oc2ccc(Cn3nc4ccc(Cl)cc4c3C(=O)NS(=O)(=O)c3ccc(NCc4ccn(C)n4)c([N+](=O)[O-])c3)cc2)cc(C)c1Cl", "quantity_measured": "pKi", "modifier": "=", "readout_value": 6.22}
{"molecule": "O=C(NS(=O)(=O)c1ccc(NCCSc2ccccc2)c([N+](=O)[O-])c1)c1ccc(C(=O)c2ccccc2)cc1", "quantity_measured": "pKi", "modifier": "=", "readout_value": 5.47}
{"molecule": "CCc1sc2ncnc(NC(C(=O)O)c3ccccc3)c2c1-c1cccc(Oc2ccc(F)cc2)c1 (racemic)", "quantity_measured": "pKi", "modifier": "=", "readout_value": 4.89}
{"molecule": "O=C(NS(=O)(=O)c1ccc(NC2CCOCC2)c([N+](=O)[O-])c1)c1ccc(N2CCN(CC3=C(c4ccc(Cl)cc4)CCOC3)CC2)cc1", "quantity_measured": "pKi", "modifier": "=", "readout_value": 7.23}
{"molecule": "CN(C)CCCC[C@H](CSc1ccccc1)Nc1ccc(S(=O)(=O)NC(=O)c2ccc(N3CCC(C)(C)CC3)cc2)cc1[N+](=O)[O-]", "quantity_measured": "pKi", "modifier": "=", "readout_value": 7.14}
{"molecule": "CN(C)CC[C@H](CSc1ccccc1)Nc1ccc(S(=O)(=O)NC(=O)c2ccc(N3CCN(Cc4ccccc4-c4ccccc4)CC3)cc2)cc1[N+](=O)[O-]", "quantity_measured": "pKi", "modifier": ">", "readout_value": 9.00}
{"molecule": "CN(C)CC[C@H](CSc1ccccc1)Nc1ccc(S(=O)(=O)NC(=O)c2ccc(N3CCN(Cc4ccccc4-c4ccc(Cl)cc4)CC3)cc2)cc1S(=O)(=O)C(F)(F)F", "quantity_measured": "pKi", "modifier": ">", "readout_value": 9.00}
{"molecule": "O=C(NS(=O)(=O)c1cccc([N+](=O)[O-])c1)[C@H](Cc1ccccc1)N1C(=O)N[C@@H](Cc2ccc(-c3ccc(Cl)cc3)cc2)C1=O", "quantity_measured": "pKi", "modifier": "=", "readout_value": 4.82}
{"molecule": "Cc1cc(OCCCn2ccc3ccc(OCc4cccc(C(=O)O)c4)cc32)cc(C)c1Cl", "quantity_measured": "pKi", "modifier": "=", "readout_value": 5.92}
{"molecule": "O=C(O)c1oc2ccccc2c1CCCOc1cccc2ccccc12", "quantity_measured": "pKi", "modifier": "=", "readout_value": 5.37}
{"molecule": "C[C@@H](C(=O)NS(=O)(=O)c1ccccc1)N1C(=O)/C(=C/c2ccc(-c3ccccc3)cc2)SC1=S", "quantity_measured": "pKi", "modifier": "=", "readout_value": 5.62}
{"molecule": "O=C(NS(=O)(=O)c1ccc(N[C@H](CCN2CCOCC2)CSc2ccccc2)c(S(=O)(=O)C(F)(F)F)c1)c1ccc(N2CCN(CC3=C(c4ccc(Cl)cc4)CCCC3)CC2)cc1", "quantity_measured": "pKi", "modifier": ">", "readout_value": 9.00}
{"molecule": "O=C(O)c1ccc(COc2ccc(/C=C3\\SC(=S)N(c4ccc(I)cc4)C3=O)cc2)cc1", "quantity_measured": "pKi", "modifier": "=", "readout_value": 5.37}
{"molecule": "O=C(/C=C/c1ccc(C(F)(F)F)cc1)Nc1ccc(C(=O)NS(=O)(=O)c2ccc(NCCSc3ccccc3)c([N+](=O)[O-])c2)cc1", "quantity_measured": "pKi", "modifier": "=", "readout_value": 5.70}
{"molecule": "COC(=O)[C@H](Cc1ccccc1)NC(=O)[C@H](Cc1ccccc1)N1C(=O)N[C@@H](Cc2ccc(-c3ccc(Cl)cc3)cc2)C1=O", "quantity_measured": "pKi", "modifier": "<", "readout_value": 4.30}
{"molecule": "O=c1c(O)cccc2c([C@H]3Oc4cc(O)cc(O)c4C[C@H]3O)cc(O)c(O)c12", "quantity_measured": "pKi", "modifier": "=", "readout_value": 6.54}
{"molecule": "Cc1c(C(=O)O)c(-c2cccc(N3CCN(c4ccc(NS(=O)(=O)c5ccc(N[C@H](CCN(C)C)CSc6ccccc6)c([N+](=O)[O-])c5)cc4)CC3)c2)c(-c2ccc(Cl)cc2)n1C", "quantity_measured": "pKi", "modifier": ">", "readout_value": 9.00}
{"molecule": "Cc1cc(Oc2ccc(Cn3nc4ccc(Cl)cc4c3C(=O)NS(=O)(=O)c3ccc([N+](=O)[O-])c(NCc4ccco4)c3)cc2)cc(C)c1Cl", "quantity_measured": "pKi", "modifier": "=", "readout_value": 6.02}
{"molecule": "Cc1nn(Cc2ccccc2)cc1-c1ccc(N2CCc3cccc(C(=O)Nc4nc5ccccc5s4)c3C2)nc1C(=O)O", "quantity_measured": "pKi", "modifier": "=", "readout_value": 6.38}
{"molecule": "CN(C)CC[C@H](CSc1ccccc1)Nc1ccc(S(=O)(=O)NC(=O)c2ccc(N3CCN(Cc4ccccc4-c4ccc(Cl)cc4)CC3)cc2)cc1C#N", "quantity_measured": "pKi", "modifier": ">", "readout_value": 9.00}
